TESTED_SYSTEM: cloned human 5HT1A receptors (Homo sapiens, UniProt P08908)
Construct: expressed in transfected cells
Sequence (P08908 whole entry): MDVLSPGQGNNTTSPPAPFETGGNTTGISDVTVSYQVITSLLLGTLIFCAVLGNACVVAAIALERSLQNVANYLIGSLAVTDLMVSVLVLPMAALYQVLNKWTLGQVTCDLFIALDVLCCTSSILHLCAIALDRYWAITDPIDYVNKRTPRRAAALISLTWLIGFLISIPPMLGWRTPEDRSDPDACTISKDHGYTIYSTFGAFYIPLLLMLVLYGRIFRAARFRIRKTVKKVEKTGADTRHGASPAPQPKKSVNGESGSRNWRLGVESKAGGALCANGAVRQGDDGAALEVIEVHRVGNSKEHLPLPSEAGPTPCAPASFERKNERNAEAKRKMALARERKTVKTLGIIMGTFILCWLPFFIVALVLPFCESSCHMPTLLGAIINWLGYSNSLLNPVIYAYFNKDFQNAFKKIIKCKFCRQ
METHOD_DESCRIPTION: 35S-GTPγS binding assay, membranes containing cloned human 5HT1A receptors
Type: biochemical
COND: maximum inhibitory effect, value in parentheses
Output class 1 for 5HT1A Function (Imax) not less than 80%; output class 0 otherwise.

Example entries and their recorded answers appear below.
INSERT INTO measurements (compound, qualitative_label) VALUES
  ('Cc1nc2ccc3c(c2o1)O[C@@H](CN[C@H]1CC[C@H](c2c[nH]c4ccc(F)cc24)C1)CO3 (mixture of isomers)', 'class 1'),
  ('Cc1ccc2c3c(ccc2n1)OC[C@H](CN(C)[C@@H]1CC[C@H](c2c[nH]c4ccc(F)cc24)C1)O3 (relative stereo)', 'class 1'),
  ('Cc1ccc2c3c(ccc2n1)OCC(CNC1CCC(c2cn(C)c4ccc(F)cc24)C1)O3 (single isomer, unassigned) [Example 5-Isomer B]', 'class 1');

Confirm if 5HT1A Function (Imax) reported for the compound Cc1ccc2c3c(ccc2n1)OCC(CNC1CCC(c2cn(C)c4ccc(F)cc24)C1)O3 (single isomer, unassigned) [Example 5] is 80% or above. class 0

Determine whether measured 5HT1A Function (Imax) meets or exceeds 80% for Cc1ccc2c3c(ccc2n1)OCC(CNC1CCC(c2cn(C)c4ccc(F)cc24)C1)O3 (single isomer, unassigned) [Example 5-Isomer A] class 1

Could you tell me if the measured 5HT1A Function (Imax) of Cc1ccc2c3c(ccc2n1)OC[C@H](CN[C@@H]1CC[C@@H](c2c[nH]c4ccc(F)cc24)C1)O3 (single isomer, unassigned) [Example 4-Isomer B] reaches 80% or more? class 1

Please tell me: is the compound Cc1ccc2c3c(ccc2n1)OCC(CNC1CCC(c2cn(C)c4ccc(F)cc24)C1)O3 (single isomer, unassigned) [Example 6] at or over 80% in terms of 5HT1A Function (Imax)? class 0

Entry Cc1ccc2c3c(ccc2n1)OCC(CNC1CCC(c2c[nH]c4ccc(F)cc24)C1)O3 (centres unmarked) [Example 4] : is its 5HT1A Function (Imax) no less than 80%? class 1

Does Cc1ccc2c3c(ccc2n1)OC[C@H](CN(C)[C@H]1CC[C@@H](c2c[nH]c4ccc(F)cc24)C1)O3 (mixture of isomers) have a reported 5HT1A Function (Imax) of at least 80%? class 1

Exam item: decide whether the reported 5HT1A Function (Imax) for Cc1ccc2c3c(ccc2n1)OC[C@H](CN[C@H]1CC[C@H](c2c[nH]c4ccc(F)cc24)C1)O3 (single isomer, unassigned) [Example 4-Isomer A] is at least 80%. class 0

Hi, just wondering whether Cc1ccc2c3c(ccc2n1)OC[C@H](CN[C@H]1CC[C@@H](c2c[nH]c4ccc(F)cc24)C1)O3 (mixture of isomers) shows 5HT1A Function (Imax) of 80% or higher. class 1

Is 5HT1A Function (Imax) at least 80%? Consider Cc1nc2ccc3c(c2o1)O[C@@H](CN[C@H]1CC[C@@H](c2c[nH]c4ccc(F)cc24)C1)CO3 (mixture of isomers) class 1

Say whether Cc1ccc2c3c(ccc2n1)OCC(CNC1CCC(c2c[nH]c4ccc(F)cc24)C1)O3 (single isomer, unassigned) [Example 3-Isomer B] shows 5HT1A Function (Imax) of 80% or more. class 1

Cited source for all entries: patent US6911445B2
